- subject of test: T1, mucin domain-deleted Sudan GP (GPdMuc) (Sudan virus (SUDV), UniProt Q7T9D9 33-632)
- T1 construct: also called Sudan GPdMuc; GP(S)dMuc
- assay overview: BLI competition on Sudan GPdMuc (upper table); competitor 15H10
Criterion: % inhibition of binding meeting or surpassing 10%. Met: fulfilled. Not met: not fulfilled.

Hi, just wondering whether antibody 315S (antibody, V domains shown) VH: EVQLVESGGGVVQPGRSLRLSCAASGFTFKTYTMHWVRQAPGKGLEWVAVITDDGVNKKYADSVKGRFTISRDNSKNTLYLQMNSLRLEDTAVYYCARSVVVLAAYPLDYWGQGTMVTVSS VL: DIQMTQSPSSLSASVGDRVTITCRASQTISTYLHWYQQRPGKAPKLLIYAASSLQSGVPSRVSGSGSGTDFTLTITSLQPEDFATYYCLQTYSLPLTFGGGTNVEIK shows % inhibition of binding of 10% or higher. not fulfilled

Entry to check: antibody 528S (antibody, V domains shown) VH: EVQLAESGGGVVQPGRSLRLSCAASGFTFNSYGMHWVRQAPGKGLEWVAVIWDDGSKKYYADSVKGRFTISRDNSKNTLFLQMNSLRAEDTAVYYCARETIMFTFGEVIVSSRDNYYMDVWGKGTTVTVSS VL: EIVLTQSPATLSLSPGERATLSCRASQSVSNYLAWYQQKPGQAPRLLIYDASTRAIGIPARFSGVGSGTDFTLTISSLEPEDFAVYYCQQRSNWPPLTFGGGTKVEIK fulfilled

Then antibody 203S (antibody, V domains shown) VH: QVQLVQSGAEVKKPGSSVKVSCKASGGTFSSYAISWVRQAPGQGLEWLGRILPALGLANYAQKYQDRVKITADKSTSTAYMELSRLGSEDTAVYYCARDRWVGAARRGQYFDYWGQGTQVTVSS VL: DIQMTQSPATLSASVGDRVTITCRASQSIGTWLAWYQQKPGKAPKLLIYDASSLESGVPPRFSGSGSETEFTLTISSLQPDDFATYYCHQYKSYSYTFGQGTKLEIK ? fulfilled

Ok, now antibody 338S (antibody, V domains shown) VH: EVQLVESGGGVVQPGRSLRLSCAASGFTFSQYGMHWVRQAPGKGLECVAVIWFDGSKKYYGDSVKGRFTISRDNSKNTLYLQMNSLRAEDTAVYFCARESLYYYDSGGHYYERGRIDYWGQGTLVTVSS VL: DIQMTQSPSSLSASVGDRVTITCRASQDISNFLAWFQQKPGKAPKSLIYAASSLLSGVPSKFSGSGSGTDFTLTISSLQPEDFATYYCQQYNSYPPTFGQGTKLEIK not fulfilled

Now this one: antibody 377S (antibody, V domains shown) VH: QVQLVQSGAEVKKPGSSVKVSCKASGGTFSNYAINWVRQAPGQGLEWMGRTIPFLGLTNYAENFQARVTITADKSTGTSYMQLSSLRSEDTAVYFCAKAATSGWSPFDNWGQGTLVTVSS VL: EIVLTQSPGTLSLSPGERATLSCRASQSISSSYFGWYQQKPGQAPRLLIYGASRRAAGIPDRFSCSGSGTDFTLTISRLEPEDFGVYYCQQYGSSPTFGQGTKVEIK fulfilled
